B1: GLT8D2 (parent)
chain: QEAKLLHWNGRHKPWDFPSVHNDL

# Variants of: B1
# Assay: protein stability index of a GFP-peptide fusion (GPS, HEK-293T) (PSI 1-6); higher = more stable;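 also: lentivirally expressed fusions sorted by FACS into six bins by GFP to DsRed ratio, PSI derived from sequencing read proportions per bin multiplied by bin number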
# Particulars: c terminus: a fixed tail appended
A collection of variants and their measured protein stability index
Reported endpoint: protein stability index

Item sequence: QEAKLLHWNGWHKPWDFPSVHNDL [R11W]
Reported endpoint: protein stability index
Test value: 2.18
--
Item sequence: QEAKLLHWNGRHKPWDFPSPHNDL [V20P]
Reported endpoint: protein stability index
Test value: 2.81
--
Item sequence: TEAKLLHWNGRHKPWDFPSVHNDL [Q1T]
Reported endpoint: protein stability index
Test value: 2.49

Each recorded value in this set is attributed to the supplement of paper PMC10567573.
